Target: COX-1 (Ovis aries)
Construct: purchased BioVision (Milpitas, CA, USA) K548-100
Sequence (P05979 25-600): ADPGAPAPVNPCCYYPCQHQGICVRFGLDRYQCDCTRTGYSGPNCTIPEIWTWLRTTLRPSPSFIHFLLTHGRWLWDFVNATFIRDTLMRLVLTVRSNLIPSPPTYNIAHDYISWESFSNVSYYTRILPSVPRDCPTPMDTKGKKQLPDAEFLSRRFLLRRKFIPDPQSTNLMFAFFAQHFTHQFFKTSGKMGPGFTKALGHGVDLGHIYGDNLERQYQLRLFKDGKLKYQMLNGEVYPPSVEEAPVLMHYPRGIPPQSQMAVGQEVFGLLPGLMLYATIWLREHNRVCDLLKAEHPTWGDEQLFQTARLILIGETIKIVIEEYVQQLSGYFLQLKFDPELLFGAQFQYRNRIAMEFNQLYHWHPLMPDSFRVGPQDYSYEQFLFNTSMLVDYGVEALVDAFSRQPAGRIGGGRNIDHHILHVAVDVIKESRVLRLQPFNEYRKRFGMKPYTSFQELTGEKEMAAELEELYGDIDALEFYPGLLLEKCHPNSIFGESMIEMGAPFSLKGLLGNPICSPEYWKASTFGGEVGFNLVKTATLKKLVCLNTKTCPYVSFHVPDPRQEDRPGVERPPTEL
Test: Fluorimetric COX-1 inhibition screening kit (BioVision)
Format: biochemical
Settings: 10^−7 M
Record form. Attribute: inhibition at 0.1 µM. Fill in for each entry.
Write it as a number; the unit % goes unstated.

*Q* Give the reported inhibition at 0.1 µM for `COc1ccc(-c2nc3ccccc3n2CCN2CCOCC2)cc1` (system: COX-1 (Ovis aries)).
*A* 37.1

*Q* Now give it for `FC(F)(F)Oc1ccc(-c2nc3ccccc3n2CCN2CCOCC2)cc1` too.
*A* 36.6

*Q* Now give it for `c1ccc(COc2ccc(-c3nc4ccccc4n3CCN3CCOCC3)cc2)cc1` too.
*A* 34.2

*Q* Now give it for `Cc1ccc(-c2nc3ccccc3n2CCN2CCOCC2)cc1` too.
*A* 35.7

*Q* Now give it for `CCOc1ccc(-c2nc3ccccc3n2CCN2CCOCC2)cc1` too.
*A* 37.7

*Q* Now give it for `CCN(CC)c1ccc(-c2nc3ccccc3n2CCN2CCOCC2)cc1` too.
*A* 35.6

----------
Record form. Attribute: AChE Inhibition (%). Fill in for each entry.
Molecular target: AChE (Homo sapiens, UniProt P22303)
Sequence (P22303 32-614): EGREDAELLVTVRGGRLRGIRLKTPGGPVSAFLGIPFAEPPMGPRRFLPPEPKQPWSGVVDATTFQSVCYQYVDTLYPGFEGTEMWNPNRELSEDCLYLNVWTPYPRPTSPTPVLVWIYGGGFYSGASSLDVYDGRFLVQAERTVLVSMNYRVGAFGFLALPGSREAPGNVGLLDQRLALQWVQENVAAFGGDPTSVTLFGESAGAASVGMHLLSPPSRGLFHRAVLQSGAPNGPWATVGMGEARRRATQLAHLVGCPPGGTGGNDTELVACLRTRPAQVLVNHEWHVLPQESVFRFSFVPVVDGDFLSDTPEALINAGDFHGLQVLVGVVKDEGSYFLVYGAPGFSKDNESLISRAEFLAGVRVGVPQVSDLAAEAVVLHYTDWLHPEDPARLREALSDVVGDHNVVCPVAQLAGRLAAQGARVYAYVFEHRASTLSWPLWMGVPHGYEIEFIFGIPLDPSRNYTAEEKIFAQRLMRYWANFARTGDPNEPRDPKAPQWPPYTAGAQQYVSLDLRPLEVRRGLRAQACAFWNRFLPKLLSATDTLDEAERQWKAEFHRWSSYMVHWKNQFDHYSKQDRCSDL
Format: biochemical
Conditions: 10^-4 M
Write it as a number; the unit % goes unstated.

*Q* Give the reported AChE Inhibition (%) for `COc1ccc(-c2nc3ccccc3n2CCN2CCOCC2)cc1` (system: AChE (Homo sapiens, UniProt P22303)).
*A* 5.19

*Q* Now give it for `CSc1ccc(-c2nc3ccccc3n2CCN2CCOCC2)cc1` too.
*A* 12.21

*Q* Now give it for `N#Cc1ccc(-c2nc3ccccc3n2CCN2CCOCC2)cc1` too.
*A* 20.45

*Q* Now give it for `c1ccc(COc2ccc(-c3nc4ccccc4n3CCN3CCOCC3)cc2)cc1` too.
*A* 15.75

*Q* Now give it for `c1ccc(-c2ccc(-c3nc4ccccc4n3CCN3CCOCC3)cc2)cc1` too.
*A* 6.33

*Q* Now give it for `FC(F)(F)Oc1ccc(-c2nc3ccccc3n2CCN2CCOCC2)cc1` too.
*A* 32.90

*Q* Now give it for `Clc1ccc(-c2nc3ccccc3n2CCN2CCOCC2)cc1` too.
*A* 5.48

*Q* Now give it for `CC(C)c1ccc(-c2nc3ccccc3n2CCN2CCOCC2)cc1` too.
*A* 17.51

*Q* Now give it for `Brc1ccc(-c2nc3ccccc3n2CCN2CCOCC2)cc1` too.
*A* 13.04

*Q* Now give it for `CCOc1ccc(-c2nc3ccccc3n2CCN2CCOCC2)cc1` too.
*A* 7.20

*Q* Now give it for `Fc1ccc(-c2nc3ccccc3n2CCN2CCOCC2)cc1` too.
*A* 16.20

*Q* Now give it for `Cc1ccc(-c2nc3ccccc3n2CCN2CCOCC2)cc1` too.
*A* 21.80

*Q* Now give it for `CCN(CC)c1ccc(-c2nc3ccccc3n2CCN2CCOCC2)cc1` too.
*A* 10.49

*Q* Now give it for `FC(F)(F)c1ccc(-c2nc3ccccc3n2CCN2CCOCC2)cc1` too.
*A* 33.88

*Q* Now give it for `CN(C)c1ccc(-c2nc3ccccc3n2CCN2CCOCC2)cc1` too.
*A* 7.54
